The reader will find reported EC50 values listed item by item below.
# Tested on: RSV A2 strain
# assay.procedure: In vitro CPE (CytoPathic Effect) inhibition effect evaluation test, RSV type A
# Assay type: cell-based
# experimental.context: human respiratory syncytial virus; inhibitory effect against RSV type A (RSV A2 strain), HEp-2 cells, CPE inhibition; read-out: EC50

Worked examples, 4 compounds total:
- compound: "CC(F)(F)c1nc(N2CC3(CCOCC3)c3cc(O[C@H]4CC[C@H](N5CC(F)(F)C5)CC4)ncc32)ncc1C(=O)N[C@]1(C(=O)O)[C@@H]2CC3C[C@H]1C[C@@](F)(C3)C2"
  EC50: "< 10 nM"
- compound: "O=C(NC1(C(=O)O)C2CC3CC(C2)CC1C3)c1cnc(-c2cn(C3CCC(F)(F)CC3)c3cc(OC4CN(c5ncc(F)cn5)C4)ccc23)nc1C(F)(F)F (centres unmarked)"
  EC50: "< 10 nM"
- compound: "O=C(NC1(C(=O)O)C2CC3CC(C2)CC1C3)c1ccc(-c2cn(-c3ccncc3)c3cc(OC4CCN(c5ncccn5)CC4)ccc23)nc1C(F)(F)F (centres unmarked)"
  EC50: "< 10 nM"
- compound: "O=C(NC1(C(=O)O)C2CC3CC(C2)CC1C3)c1cnc(-c2cn(C3CCC(F)(F)CC3)c3cc(OC4CCC5(CC4)CN(CC(F)(F)F)C5)ccc23)nc1C(F)(F)F (centres unmarked)"
  EC50: "< 10 nM"

Here is another compound to look at.
Give reported EC50 for CC(C)(C)OC(=O)N1CCC(Oc2ccc3c(c2)CCN3c2ncc(C(=O)NC3(C(=O)O)CCCCC3)c(C(F)(F)F)n2)CC1 (RSV A2 strain)
10 to 100 nM

###

The reader will find reported EC50 values listed item by item below.
# Tested on: RSV A2 strain
# assay.procedure: In vitro CPE (CytoPathic Effect) inhibition effect evaluation test, RSV type A
# Format: cell-based
# experimental.context: human respiratory syncytial virus; inhibitory effect against RSV type A (RSV A2 strain), HEp-2 cells, CPE inhibition; read-out: EC50

- compound: "O=C(NC1(C(=O)O)C2CC3CC(C2)CC1C3)c1cnc(N2CC3(CCCCC3)c3cc(O[C@H]4CC[C@H](ON=C5CCC(F)(F)CC5)CC4)ccc32)nc1C(F)(F)F (stereo partly drawn)"
  EC50: "10 to 100 nM"
- compound: "CC(F)(F)c1nc(N2CC3(CCCCC3)c3cc(O[C@H]4CC[C@H](N5CC(F)(F)C5)CC4)ncc32)ncc1C(=O)N[C@]1(C(=O)O)[C@@H]2CC3C[C@H]1C[C@@](F)(C3)C2"
  EC50: "< 10 nM"

Here is another compound to look at.
Identify measured EC50 corresponding to CC(F)(F)c1nc(N2CC3(CCCCC3)c3cc(C(=O)N4CCN(CC(F)(F)F)CC4)ccc32)ncc1C(=O)NC1(C(=O)O)C2CC3CC(C2)CC1C3 (stereo not drawn)
< 10 nM

###

The reader will find reported EC50 values listed item by item below.
# Tested on: RSV A2 strain
# assay.procedure: In vitro CPE (CytoPathic Effect) inhibition effect evaluation test, RSV type A
# Type: cell-based
# experimental.context: human respiratory syncytial virus; inhibitory effect against RSV type A (RSV A2 strain), HEp-2 cells, CPE inhibition; read-out: EC50

Worked examples, 3 compounds total:
- compound: "CN(C)CCCc1nc(N2CCc3cc(OCCC4CCOCC4)ccc32)nc(C(F)(F)F)c1C(=O)NC1(C(=O)O)C2CC3CC(C2)CC1C3 (stereo not drawn)"
  EC50: "10 to 100 nM"
- compound: "O=C(NC1(C(=O)O)C2CC3CC(C2)CC1C3)c1cnc(N2CC3(CCCCC3)c3cc(OC4CCN(c5ncccn5)CC4)c(F)cc32)nc1C(F)(F)F (stereo not drawn)"
  EC50: "< 10 nM"
- compound: "O=C(NC1(C(=O)O)CCCCC1)c1cnc(N2CCc3cc(OCC4CN(c5ncccn5)CCO4)ccc32)nc1C(F)(F)F (racemic)"
  EC50: "10 to 100 nM"

Identify measured EC50 corresponding to O=C(NC1(C(=O)O)C2CC3CC(C2)CC1C3)c1cnc(N2CC3(CCCCC3)c3cc(C(=O)N4CCN(c5ncc(F)cn5)CC4)ccc32)nc1C(F)(F)F (stereo not drawn)
< 10 nM

Identify measured EC50 corresponding to O=C(NC1(C(=O)O)C2CC3CC(C2)CC1C3)c1cnc(N2CC3(CCOCC3)c3cc(Nc4ncccn4)ccc32)nc1C(F)(F)F (stereo not drawn)
< 10 nM

Identify measured EC50 corresponding to O=C(NC1(C(=O)O)C2CC3CC(C2)CC1C3)c1cnc(N2CC3(CCCCC3)c3cc(C(=O)N4CCN(CC(F)(F)F)CC4)ccc32)nc1C(F)(F)F (stereo not drawn)
< 10 nM

###

The reader will find reported EC50 values listed item by item below.
# System: RSV A2 strain
# assay.procedure: In vitro CPE (CytoPathic Effect) inhibition effect evaluation test, RSV type A
# Format: cell-based
# experimental.context: human respiratory syncytial virus; inhibitory effect against RSV type A (RSV A2 strain), HEp-2 cells, CPE inhibition; read-out: EC50

Worked examples, 5 compounds total:
- compound: "CCc1nc(COc2ccc3c(c2)CCN3c2ncc(C(=O)NC3(C(=O)O)CCCCC3)c(C(F)(F)F)n2)cs1"
  EC50: "10 to 100 nM"
- compound: "Cc1nc(-c2cn(C3CCOCC3)c3cc(OC4CCN(c5ncccn5)CC4)ccc23)nc(C(F)(F)F)c1C(=O)NC1(C(=O)O)C2CC3CC(C2)CC1C3 (stereo not drawn)"
  EC50: "< 10 nM"
- compound: "O=C(NC1(C(=O)O)CCNCC1)c1cnc(N2CC3(CCOCC3)c3cc(OC4CCN(c5ncccn5)CC4)ccc32)nc1C(F)(F)F"
  EC50: "100 to 5000 nM"
- compound: "O=C(NC1(C(=O)O)C2CC3CC(C2)CC1C3)c1cnc(N2CC3(CCCCC3)c3cc(O[C@H]4CC[C@H](n5cncn5)CC4)ccc32)nc1C(F)(F)F (stereo partly drawn)"
  EC50: "< 10 nM"
- compound: "O=C(NC1(C(=O)O)C2CC3CC(C2)CC1C3)c1cnc(N2CC3(CCCCC3)c3cc(OC4CCN(c5ncco5)CC4)ccc32)nc1C(F)(F)F (stereo not drawn)"
  EC50: "< 10 nM"

Here is another compound to look at.
Identify measured EC50 corresponding to O=C(NC1(C(=O)O)CCCCC1)c1cnc(N2CCc3cc(C4=CCCN(c5ncccn5)C4)ccc32)nc1C(F)(F)F
< 10 nM

###

# System: RSV A2 strain
# assay.procedure: In vitro CPE (CytoPathic Effect) inhibition effect evaluation test, RSV type A
# Format: cell-based
# experimental.context: human respiratory syncytial virus; inhibitory effect against RSV type A (RSV A2 strain), HEp-2 cells, CPE inhibition; read-out: EC50
The reader will find reported EC50 values listed item by item below.

Worked examples, 5 molecules total:
- molecule: "O=C(NC1(C(=O)O)C2CC3CC(C2)CC1C3)c1cnc(N2CC3(CCOCC3)c3cc(O[C@H]4CC[C@H](n5cccn5)CC4)ccc32)nc1C(F)(F)F (stereo partly drawn)"
  result: "< 10 nM"
- molecule: "O=C(NC1(C(=O)O)C2CC3CC(C2)CC1C3)c1cnc(N2CC3(CCOCC3)c3cc(OC4CCN(c5ncc(F)cn5)CC4)ccc32)nc1C(F)(F)F (stereo not drawn)"
  result: "< 10 nM"
- molecule: "O=C(NC1(C(=O)O)CCCCC1)c1cnc(N2CC3(CCCCC3)c3cc(OCCC4CCOCC4)ccc32)nc1C(F)(F)F"
  result: "< 10 nM"
- molecule: "CC(F)(F)c1nc(N2CC3(CCOCC3)c3cc(OC4CCN(c5ncc(F)cn5)CC4)ncc32)ncc1C(=O)N[C@]1(C(=O)O)[C@@H]2CC3C[C@H]1C[C@@](F)(C3)C2"
  result: "< 10 nM"
- molecule: "O=C(NC1(C(=O)O)C2CC3CC(C2)CC1C3)c1cnc(-c2cn(C3CCC(F)(F)CC3)c3cc(OC4CCC(F)(F)CC4)ccc23)nc1C(F)(F)F (stereo not drawn)"
  result: "< 10 nM"

Identify measured EC50 corresponding to O=C(NC1(C(=O)O)CCOCC1)c1cnc(N2CCc3cc(OC4CCN(c5ncccn5)CC4)ccc32)nc1C(F)(F)F
10 to 100 nM

###

# Test system: RSV A2 strain
# assay.procedure: In vitro CPE (CytoPathic Effect) inhibition effect evaluation test, RSV type A
# Assay type: cell-based
# experimental.context: human respiratory syncytial virus; inhibitory effect against RSV type A (RSV A2 strain), HEp-2 cells, CPE inhibition; read-out: EC50
pEC50: −log10 of the molar value.
The reader will find reported pEC50 values listed item by item below.

- molecule: "O=C(NC1(C(=O)O)C2CC3CC(C2)CC1C3)c1cnc(N2CC3(CCOCC3)c3cc(F)ccc32)nc1C(F)(F)F (stereo not drawn) [Compound I-284]"
  result: "> 8.00"

Identify measured pEC50 corresponding to O=C(NC1(C(=O)O)C2CC3CC(C2)CC1C3)c1cnc(N2CC3(CCOCC3)c3cc(C(=O)N4CC(C(F)(F)F)C4)ccc32)nc1C(F)(F)F (stereo not drawn) [Compound I-490]
> 8.00

Identify measured pEC50 corresponding to O=C(NC1(C(=O)O)CCCCC1)c1cnc(N2CCc3cc(OC4CCN(c5cccnc5)CC4)ccc32)nc1C(F)(F)F [Compound I-51]
7.00 to 8.00

Identify measured pEC50 corresponding to O=C(NC1(C(=O)O)C2CC3CC(C2)CC1C3)c1ccc(-c2cn(C3CCC(F)(F)CC3)c3cc(OC4CCCN(C5COC5)C4)ccc23)nc1C(F)(F)F (racemic) [Compound I-235]
> 8.00

Identify measured pEC50 corresponding to O=C(NC1(C(=O)O)C2CC3CC(C2)CC1C3)c1cnc(-c2cn(C3CCOCC3)c3cc(OC4CCN(c5ncccn5)CC4)ccc23)nc1C(F)(F)F (stereo not drawn) [Compound I-146]
> 8.00

Identify measured pEC50 corresponding to CC(C)(C)OC(=O)N1CCC(NC(=O)c2cnc(N3CC4(CCOCC4)c4cc(OC5CCN(c6ncccn6)CC5)ccc43)nc2C(F)(F)F)(C(=O)O)CC1 [Compound I-140]
7.00 to 8.00
